Reference source for all entries: patent US20240400577A1

measurementTarget: SRC (Homo sapiens, UniProt P12931)
Construct: Nanosyn (contract laboratory that ran the panel)
Sequence (P12931 whole entry): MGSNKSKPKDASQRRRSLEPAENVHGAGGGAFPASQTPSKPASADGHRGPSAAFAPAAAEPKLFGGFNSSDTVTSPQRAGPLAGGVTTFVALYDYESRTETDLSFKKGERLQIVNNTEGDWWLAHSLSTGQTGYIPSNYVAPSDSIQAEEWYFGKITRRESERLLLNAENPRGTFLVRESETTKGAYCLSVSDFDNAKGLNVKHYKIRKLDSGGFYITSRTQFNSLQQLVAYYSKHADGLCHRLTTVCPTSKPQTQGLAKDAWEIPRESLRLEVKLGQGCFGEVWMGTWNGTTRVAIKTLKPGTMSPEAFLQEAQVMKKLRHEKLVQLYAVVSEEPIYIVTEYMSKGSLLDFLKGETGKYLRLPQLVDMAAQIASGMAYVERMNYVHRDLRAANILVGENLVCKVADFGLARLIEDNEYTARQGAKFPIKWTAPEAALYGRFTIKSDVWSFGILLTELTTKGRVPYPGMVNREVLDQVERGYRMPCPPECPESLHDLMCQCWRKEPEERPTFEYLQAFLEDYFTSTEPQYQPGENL
procedureDetails: Kinase panel enzymatic inhibition assay (Nanosyn)
Format: biochemical
measurementParameters: compound 5 μM; ATP at Km; 30-minute pre-incubation
resultType: inhibition at 5 µM

compound="Cc1ccc(NC(=O)c2cc([S+](C)[O-])n(-c3ccc(F)cc3)n2)cc1Nc1ccc2ncn(C)c(=O)c2c1 (stereo not shown)" resulttype="inhibition at 5 µM" obsvalue="< 79%"
compound=CCOC(=O)Nc1cn2nc(Nc3cc(NC(=O)c4cc(S(C)(=O)=O)n(-c5ccc(F)cc5)n4)ccc3C)ccc2n1 resulttype="inhibition at 5 µM" obsvalue="90 to 94%"
compound=CSc1cc(C(=O)Nc2cc(Oc3ccnc(C(=O)NC4CNC4)c3)ccc2F)nn1-c1ccc(F)cc1 resulttype="inhibition at 5 µM" obsvalue="< 79%"
compound="CCOC(=O)Nc1cn2nc(Nc3cc(NC(=O)c4cc([S+](C)[O-])n(-c5ccc(F)cc5)n4)ccc3C)ccc2n1 (stereo not shown)" resulttype="inhibition at 5 µM" obsvalue="80 to 89%"
compound=Cc1ccc(NC(=O)c2cc(S(C)(=O)=O)n(-c3ccc(F)cc3)n2)cc1-c1cc(N2CCOCC2)c(=O)n(C)c1 resulttype="inhibition at 5 µM" obsvalue="< 79%"
compound="Cc1ccc(NC(=O)c2cc([S+](C)[O-])n(-c3ccc(F)cc3)n2)cc1C#Cc1cnc2cccnn12 (stereo not shown)" resulttype="inhibition at 5 µM" obsvalue="90 to 94%"
compound=Cc1ccc(NC(=O)c2cc(S(C)(=O)=O)n(-c3ccc(F)cc3)n2)cc1-c1cc(OCCO)nc(N2CCOCC2)c1 resulttype="inhibition at 5 µM" obsvalue="< 79%"
